From: patent US20180206495A1

System: Brassica napus
PROTOCOL NOTES: In vivo analyses Part B: drought stress, spray application, appearance vs stressed control in categories, Brassica napus
Set-up: key: 0: no positive effect; +: slight positive effect; ++: clear positive effect; +++: strong positive effect
MEASUREMENT CONTEXT: dosage 250 g/ha
RECORDED ENDPOINT: Effect (BRSNS)

INSERT INTO measurements (smiles_record, recorded_result) VALUES
  ('CN(C)N(Cc1ccc(Cl)nc1Cl)C(=O)c1ccc(F)cc1C(F)(F)F', '+'),
  ('CN(C)N(Cc1c(Cl)cccc1Cl)C(=O)c1cnccc1C(F)(F)F', '+++'),
  ('CN(C)N(Cc1cccnc1C#N)C(=O)c1ccccc1I', '+'),
  ('CN(C)N(Cc1ccc(C#N)cc1)C(=O)c1ccccc1C(F)(F)F', '+');

Challenge: Bench note: what Effect (BRSNS) did CN(C)N(Cc1ncc(C(F)(F)F)cc1Cl)C(=O)c1ccc(Cl)cc1C(F)(F)F show?
Response given: +

Challenge: Bench note: what Effect (BRSNS) did CCN(C)N(Cc1nccc(Cl)c1Cl)C(=O)c1ccccc1C(F)(F)F show?
Response given: +

Challenge: Bench note: what Effect (BRSNS) did CN(C)N(Cc1c(Cl)cc(Cl)cc1Cl)C(=O)c1cnccc1C(F)(F)F show?
Response given: +++

Challenge: Bench note: what Effect (BRSNS) did CN(C)N(Cc1nccc(Cl)c1Cl)C(=O)c1ccccc1Cl show?
Response given: ++

Challenge: Bench note: what Effect (BRSNS) did CN(C)N(Cc1ccccc1C#N)C(=O)c1cnccc1C(F)(F)F show?
Response given: ++

Challenge: Bench note: what Effect (BRSNS) did COC(=O)c1ccccc1CN(C(=O)c1ccccc1C(F)(F)F)N(C)C show?
Response given: ++
